Molecular target: Dihydroorotate dehydrogenase (quinone), mitochondrial (Homo sapiens, UniProt Q02127)
Sequence (Q02127 whole entry): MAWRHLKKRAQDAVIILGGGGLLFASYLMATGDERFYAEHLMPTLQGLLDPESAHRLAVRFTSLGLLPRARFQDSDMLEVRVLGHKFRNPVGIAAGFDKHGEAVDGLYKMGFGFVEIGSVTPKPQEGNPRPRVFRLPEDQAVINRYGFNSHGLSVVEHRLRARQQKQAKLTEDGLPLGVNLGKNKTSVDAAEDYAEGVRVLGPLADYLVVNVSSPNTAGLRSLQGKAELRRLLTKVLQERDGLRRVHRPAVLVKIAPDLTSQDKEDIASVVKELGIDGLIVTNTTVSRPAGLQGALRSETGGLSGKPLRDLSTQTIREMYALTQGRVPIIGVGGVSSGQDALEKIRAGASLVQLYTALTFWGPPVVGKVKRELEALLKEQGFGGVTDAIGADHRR
Experiment: Inhibition of human DHODH in MOLM-13 AML cells
value kind: IC50 (nM)
Answers are plain numbers, in nM.

Name the recorded IC50 of the molecule listed here: CCn1c(CO)nn(-c2nc(O[C@@H](C)C(F)(F)F)c(C(=O)Nc3c(F)cccc3Cl)cc2F)c1=O
0.24

* * *

Assay: Oral bioavailability in C57 mouse at 10 mg/kg
Format: ADME, organism-based
Conditions: in vivo
value kind: bioavailability

Name the recorded bioavailability of the compound listed here: C[C@H](Oc1cc(NC(=O)N2C(=O)CCC2CO)c(F)cc1C(=O)Nc1c(F)cccc1Cl)C(F)(F)F (mixture of isomers)
> 100%
